system: MOLT-4 leukemia; test: NCI tumour cell line growth inhibition, 48 h

- Compound: "Clc1ccccc1/C=C\\C1(c2ccccc2)OCCO1"
  TGI: "73.4 µM"
- Compound: "O=C1NC2C(=O)N(Cc3ccccc3)C(=O)C2N1 (configuration not stated)"
  TGI: "> 100 µM"
- Compound: "CN(C)N=Nc1ccccc1"
  TGI: "> 100 µM"
- Compound: "O=C1CCCCCCCCCCC(=O)N2CCOCCOCCN1Cc1cccc(n1)C2"
  TGI: "> 100 µM"
- Compound: "CCOC(=O)C1=C(NC(C)(C)C)OC/C1=N\\NC(=O)Cc1ccccc1"
  TGI: "> 100 µM"
- Compound: "COc1cc(C[C@@H](C)N)cc(OC)c1"
  TGI: "> 100 µM"
- Compound: "CCCS(=O)(=O)Nc1ccc(F)c(C(=O)c2c[nH]c3ncc(Cl)cc23)c1F"
  TGI: "> 83 µM"
- Compound: "Nc1nc(SCCC/C=C/B(O)O)nc2c1ncn2C1OC(COP(=O)(O)O)C(O)C1O (configuration not stated)"
  TGI: "> 203 µM"
- Compound: "Cc1ccc([N+](=O)[O-])cc1S(=O)(=O)Nc1ccc(C2=NN(C(=O)c3ccccc3)C(c3ccccc3)C2)cc1 (configuration not stated)"
  TGI: "> 100 µM"
- Compound: "CN(Cc1cnc2c(n1)C(N)=NN(N)N2)c1ccc(C(=O)NC(CCP(=O)(O)O)C(=O)O)cc1 (configuration not stated)"
  TGI: "> 100 µM"
- Compound: "Cc1ncc([N+](=O)[O-])n1CCNC(=O)CCCn1ccnc1[N+](=O)[O-]"
  TGI: "> 100 µM"
- Compound: "CSC1=NN(c2ccccc2)C(=O)C1=C(SC)SC"
  TGI: "> 100 µM"

----------
test system: TK-10 renal; assay: NCI tumour cell line growth inhibition, 48 h; in the data active = GI50 below about 0.43 µM; inactive = the rest
Outcomes: label 1 (active), label 0 (inactive)

- Structure As Smiles: "CN1CCc2c(c3ccccc3c3ccccc23)C1"
  Measured On: "TK-10 renal"
  Classification: "label 0"
- Structure As Smiles: "O=P(O)(NCCCl)NCCCl"
  Measured On: "TK-10 renal"
  Classification: "label 0"
- Structure As Smiles: "O=c1c2ccc3cccc4c(=O)c5ccc6cccc1c6c5-c2c34"
  Measured On: "TK-10 renal"
  Classification: "label 0"
- Structure As Smiles: "[Cl-].[Cl-].[Cl-].[O-]c1cccc2cccnc12.[O-]c1cccc2cccnc12.[O]=[Mo]"
  Measured On: "TK-10 renal"
  Classification: "label 0"
- Structure As Smiles: "CN1CCN(CCCOc2ccc3nc(Nc4cc(Cl)cc(Cl)c4)ccc3c2)CC1"
  Measured On: "TK-10 renal"
  Classification: "label 0"
- Structure As Smiles: "FC(F)(F)c1nnn[n-]1.[Au+].c1ccc([PH+](c2ccccc2)c2ccccc2)cc1"
  Measured On: "TK-10 renal"
  Classification: "label 0"
- Structure As Smiles: "COc1cc2ncn(-c3cc(O[C@H](C)c4ccccc4Cl)c(C(N)=O)s3)c2cc1OC"
  Measured On: "TK-10 renal"
  Classification: "label 1"

----------
Below, each entry is listed alongside its reported TGI.
test system: KM12 colon; experiment: NCI tumour cell line growth inhibition, 48 h

- Compound: "C/C1=C\\[C@H](C)C[C@H](C)OC(=O)C[C@H](c2ccc(O)cc2)NC(=O)[C@H](Cc2ccc(O)c(I)c2)N(C)C(=O)[C@H](C)NC(=O)[C@@H](C)C1"
  TGI: "> 25 µM"
- Compound: "CCCc1onc(CCC(=O)N(Cc2ccccc2)Cc2ccccc2)c1CC"
  TGI: "> 100 µM"
- Compound: "O=C1Nc2ccccc2C1=Nc1ccc(S(=O)(=O)Nc2nccs2)cc1"
  TGI: "> 100 µM"
- Compound: "O=C1c2ccccc2-c2nnc(-c3ccc(Br)cc3)cc21"
  TGI: "> 100 µM"
- Compound: "COc1ccc2[nH]c(S(=O)(=O)N3CC(CCl)c4ccc(N)cc43)cc2c1 (stereo not drawn)"
  TGI: "3.86 µM"
- Compound: "CCN(CC)CCOc1ccc(N2C(=O)c3cccc4cc([N+](=O)[O-])cc(c34)C2=O)cc1"
  TGI: "64.5 µM"
- Compound: "CC(C)(C)C1CCC2c3c([nH]c4ccccc34)C3C(=O)N(c4cccc([N+](=O)[O-])c4)C(=O)C3C2C1 (stereo not drawn)"
  TGI: "25.3 µM"
- Compound: "C[C@@H]1C[N+]2([O-])[C@H]3C4=CCC[C@@H]4CC[C@H]3[C@@]3(C)OC(=O)CC[C@]34CC[C@H]1[C@@H]42 (stereo partly drawn)"
  TGI: "> 60 µM"
